For each of the molecules below, state its EC50.
- System: CEM cells HIV-1 protection, formazan growth assay
- methodNotes: NCI AIDS Antiviral Assay

- molecule: "COc1cccc(NC(=S)/C(=C(/[O-])c2ccc(C)cc2)[n+]2ccccc2)c1"
  systemName: "CEM cells HIV-1 protection, formazan growth assay"
  measuredValue: "> 200 µM"
- molecule: "COc1cc(Nc2c3ccccc3nc3ccccc23)ccc1NS(C)(=O)=O"
  systemName: "CEM cells HIV-1 protection, formazan growth assay"
  measuredValue: "> 200 µM"
- molecule: "CCOc1ccc(NC2OC(CO)C(O)C(O)C2NC(C)=O)cc1 (configuration not stated)"
  systemName: "CEM cells HIV-1 protection, formazan growth assay"
  measuredValue: "> 200 µM"
- molecule: "CCCCCC(=O)OC1(C(C)=O)CCC2C3CCC4=CC(=O)CCC4C3CCC21C (configuration not stated)"
  systemName: "CEM cells HIV-1 protection, formazan growth assay"
  measuredValue: "> 200 µM"
- molecule: "COC(=O)C1=C(c2ccccc2)C(O)(c2ccccc2)C(C(=O)OC)C1=O (configuration not stated)"
  systemName: "CEM cells HIV-1 protection, formazan growth assay"
  measuredValue: "> 339 µM"
- molecule: "OC1CCOc2ccccc21 (configuration not stated)"
  systemName: "CEM cells HIV-1 protection, formazan growth assay"
  measuredValue: "> 200 µM"
- molecule: "CN1CCC2(CC1)SC[C@H]1C(=O)N(c3ccc(Cl)cc3)C(=O)N12"
  systemName: "CEM cells HIV-1 protection, formazan growth assay"
  measuredValue: "> 200 µM"
- molecule: "O=C1/C=C(/c2ccc(O)cc2)[C@@H](O)Cc2ccc(O)cc2O1"
  systemName: "CEM cells HIV-1 protection, formazan growth assay"
  measuredValue: "> 200 µM"
- molecule: "CCCCCC=C(c1cc(Br)c(OC)c(C(=O)O)c1)c1cc(Br)c(OC)c(C(=O)O)c1"
  systemName: "CEM cells HIV-1 protection, formazan growth assay"
  measuredValue: "> 200 µM"
- molecule: "O=C(NCCCN1CCN(CCCNC(=O)Nc2cc(Cl)ccc2Cl)CC1)Nc1cc(Cl)ccc1Cl"
  systemName: "CEM cells HIV-1 protection, formazan growth assay"
  measuredValue: "> 0.955 µM"

Below are some molecules; for each one, tell me its EC50.
1. O=C(CC(=O)n1nc(-c2ccccc2)c(N=Nc2ccc(Cl)cc2)c1-c1ccccc1)Nc1cccc(Cl)c1
2. O=C(O)c1cc([N+](=O)[O-])c2c(c1)P(=O)(O)c1cc(C(=O)O)cc([N+](=O)[O-])c1O2

["> 200 µM", "> 200 µM"]

Below are some molecules; for each one, tell me its EC50.
1. CCOC(=O)C1(O)N=C(c2ccccc2)c2ccccc2-n2cccc21 (configuration not stated)
2. CCOP(=O)(OCC)OC1CC(n2cnc3c(N(CC)CC)ncnc32)OC1CO[Si](C)(C)C(C)(C)C (configuration not stated)

1. > 200 µM
2. > 200 µM

Below are some molecules; for each one, tell me its EC50.
1. COc1cccc2c1C(c1ccc3ccccc3c1)OC2=O (configuration not stated)
2. CCC[CH2][Sn]([Cl])([CH2]CCC)[S]C(=S)NCCNC(=S)[S][Sn]([Cl])([CH2]CCC)[CH2]CCC

> 46.8 µM
> 2 µM

Below are some molecules; for each one, tell me its EC50.
1. CCCCc1ccc(Nc2nc3c(ncn3COCCO)c(=O)[nH]2)cc1
2. CCN(CCCc1ccccc1)CCCc1ccccc1
3. Cc1ccc(S(=O)(=O)N/N=C/CN2C(=O)c3ccccc3C2=O)cc1

1: > 200 µM; 2: > 200 µM; 3: 182 µM

Below are some molecules; for each one, tell me its EC50.
1. O=C1C2=C(CCCCC2)C2CCCCC12O (configuration not stated)
2. O=C(Cn1c(=O)oc2ccccc21)N(c1ccccc1)c1ccccc1
3. COC(=O)C1(SC)C2CCC3C2CCC31 (configuration not stated)

1: > 200 µM; 2: > 200 µM; 3: > 200 µM

---

For each of the compounds below, state its IC50.
- Test system: CEM cells HIV-1 protection, formazan growth assay
- methodNotes: NCI AIDS Antiviral Assay
- testContext: measured here: growth of uninfected CEM cells

- compound: "O=C(OC[C@H]1O[C@@H](OC(=O)c2cc(O)c(O)c(O)c2)[C@H](OC(=O)c2cc(O)c(O)c(O)c2)[C@@H](OC(=O)c2cc(O)c(O)c(O)c2)[C@@H]1OC(=O)c1cc(O)c(O)c(O)c1)c1cc(O)c(O)c(O)c1"
  IC50: "21.4 µM"

Below are some compounds; for each one, tell me its IC50.
1. CN(C)CCCNC(=O)c1cc(NC(=O)c2cc(NC(=O)c3cc(NC(=O)c4cccc(C(=O)Nc5cc(C(=O)Nc6cc(C(=O)Nc7cc(C(=O)NCCCN(C)C)n(C)c7)n(C)c6)n(C)c5)c4)cn3C)cn2C)cn1C
2. Cc1noc2c1CSC1=C2S(=O)(=O)N(C)c2ccccc21

["> 100 µM", "> 58.9 µM"]

Below are some compounds; for each one, tell me its IC50.
1. Cc1ccc(C2OC(=O)c3c2ccc2ccccc32)cc1 (stereo not given)
2. CCOC(=O)Nc1nc2ccn(C)c2s1
3. Cc1ccc2c(c1)nc(-c1ccccn1)n2CCc1ccccn1
4. Cc1cc2c(cc1C)[n+](=O)c(C(=O)C/C(=N/OCCCc1ccccc1)C(=O)Nc1cc(Cl)ccc1Cl)c(C)n2[O-]
5. COc1ccc(N=Nc2c(-c3c(OC)cc4occc4c3OC)[nH]c(=O)c(C#N)c2C)cc1
6. COc1c2c(c(OC)c3c(=O)cc(C/C(=N/NC(=O)C[n+]4ccccc4)C(=O)Nc4cc(C)ccc4C)oc13)OCO2
7. BrCCCCCOc1ccc(-c2c3ccccc3c(-c3ccc(OCCCCCBr)cc3)c3ccccc23)cc1

> 35.5 µM
> 200 µM
83.2 µM
> 6.31 µM
120 µM
> 30.9 µM
> 100 µM

---

- Test system: CEM cells HIV-1 protection, formazan growth assay
- methodNotes: NCI AIDS Antiviral Assay
- testContext: measured here: growth of uninfected CEM cells
- Method: The ability of compounds to protect human CEM cells from HIV-1 infection is measured as a screen for new compounds capable of inhibiting the HIV virus. Five concentrations of drug were tested on uninfected and infected cells and cell growth was measured using a soluble formazan assay. […] Compounds that provided at least 50% protection were retested. Compounds that provided at least 50% protection on retest were listed as moderately active. […]
For each of the molecules below, state its pIC50.
One number for each entry, as −log10 of the molar value.

Consider the following illustrative entries.
- chemicalSmiles: "Cc1nc2ccccc2c(-n2cccn2)c1CCn1cccn1"
  pIC50: 4.03
- chemicalSmiles: "CC[C@@H](CCCC[C@@H]1CC[C@H]2CC(=O)C[C@@H]12)OC"
  pIC50: 3.73

Turning to the following molecule.
Which pIC50 is reported for this molecule? CCC[CH2][Sn]([Cl])([CH2]CCC)[S]C(=S)NCCNC(=S)[S][Sn]([Cl])([CH2]CCC)[CH2]CCC
6.99

---

- Tested on: CEM cells HIV-1 protection, formazan growth assay
- methodNotes: NCI AIDS Antiviral Assay
- testContext: measured here: growth of uninfected CEM cells
experimentalReadout: pIC50
Give bare numbers, as −log10 of the molar value.

Consider the following illustrative entries.
- compound: "CCOC(=O)/C(=C\\c1cccc(OC)c1)C(C)=O"
  systemName: "CEM cells HIV-1 protection, formazan growth assay"
  pIC50: 4.02
- compound: "CCCc1cc(=O)oc2c3c(c4c(c12)OC(C)(C)C(O)C4=O)O[C@@H](C)[C@H](C)[C@@H]3O (stereo not given in full)"
  systemName: "CEM cells HIV-1 protection, formazan growth assay"
  pIC50: 4.07
- compound: "CN(C)C(=O)C(NCCO)c1ccccc1 (stereo not given)"
  systemName: "CEM cells HIV-1 protection, formazan growth assay"
  pIC50: 4.13
- compound: "COc1nc2c(c(=O)n1C)N=C(c1ccc(Cl)cc1)CC(c1ccccc1)N2 (stereo not given)"
  systemName: "CEM cells HIV-1 protection, formazan growth assay"
  pIC50: 4.51
- compound: "COc1ccccc1NC(=O)C(=O)Cc1cnc2ccccc2n1"
  systemName: "CEM cells HIV-1 protection, formazan growth assay"
  pIC50: 3.86
- compound: "COC(=O)C1=C(C(=O)OC)C23CC4CCC2(C(=O)C1O3)C4(C)C (stereo not given)"
  systemName: "CEM cells HIV-1 protection, formazan growth assay"
  pIC50: 4.78

Which pIC50 is reported for this compound? C=C1C[C@H]2[C@@H]3C=C(C)C4=CC(=O)CC[C@]4(C)[C@H]3CC[C@]2(C)[C@@]1(OC(C)=O)C(C)=O
4.55

---

- System: CEM cells HIV-1 protection, formazan growth assay
- methodNotes: NCI AIDS Antiviral Assay;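 active = compounds giving half or more protection of infected cells from virus-caused growth loss, again on retest; inactive = the rest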
Allowed answers: t (active), f (inactive)

Please review the entries below; each comes with its answer.
- compound: "Cn1ccnc1SC(F)(F)c1nc2ccccc2o1"
  cat: "f"
- compound: "COc1cc2c(cc1OC)C1=NN(c3ccccc3)C(=O)C1CC2 (stereo unspecified)"
  cat: "f"
- compound: "COc1cc2c(cc1OCc1ccccc1)NC(=O)[C@@H]1CCCN1C2=O"
  cat: "f"

Below: the item to evaluate.
Assay result, entry Cc1c(C)c2cc3ccoc3cc2oc1=O — outcome?
f
